Origin of the recorded values: ChEMBL document CHEMBL2434904

# assayed target: 17-beta-hydroxysteroid dehydrogenase type 1 (Homo sapiens)
# experiment description: Inhibition of human placenta 17beta-HSD1 cytosolic fraction using unlabeled, [2,4,6,7-3H]-estrone as substrate at 1 uM after 10 mins by HPLC analysis in presence of NADH relative to control
measured endpoint: inhibition (%)

[[record]]
smiles_notation = "COc1ccc(-c2cccc(C(=O)N(C)Cc3cccc(OC)c3)c2)cc1"
assayed_target = "17-beta-hydroxysteroid dehydrogenase type 1 (Homo sapiens)"
number = 3

[[record]]
smiles_notation = "CN(c1cccc(-c2cccc(O)c2)c1)S(=O)(=O)c1cccc(O)c1"
assayed_target = "17-beta-hydroxysteroid dehydrogenase type 1 (Homo sapiens)"
number = 68

[[record]]
smiles_notation = "CN(c1cccc(O)c1)S(=O)(=O)c1cccc(-c2cccc(O)c2)c1"
assayed_target = "17-beta-hydroxysteroid dehydrogenase type 1 (Homo sapiens)"
number = 42

[[record]]
smiles_notation = "CN(c1ccc(-c2cccc(O)c2)cc1)S(=O)(=O)c1cccc(O)c1"
assayed_target = "17-beta-hydroxysteroid dehydrogenase type 1 (Homo sapiens)"
number = 22


---

Items are presented alongside their recorded Ratio IC50.
# Organism: Homo sapiens
# experiment description: Selectivity factor, ratio of IC50 for human placenta 17beta-HSD1 cytosolic fraction to IC50 for human placenta 17beta-HSD2 microsomal fraction
measured endpoint: Ratio IC50

[[record]]
smiles_notation = "CN(c1cccc(O)c1)S(=O)(=O)c1cccc(-c2cccc(O)c2)c1"
qualifier_operator = "="
number = 2

[[record]]
smiles_notation = "CN(c1cccc(-c2cccc(O)c2)c1)S(=O)(=O)c1cccc(O)c1"
qualifier_operator = "="
number = 3

[[record]]
smiles_notation = "CN(c1ccc(-c2cccc(O)c2)cc1)S(=O)(=O)c1cccc(O)c1"
qualifier_operator = "="
number = 6

[[record]]
smiles_notation = "COc1cccc(-c2cccc(C(=O)N(C)c3cccc(OC)c3)c2)c1"
qualifier_operator = ">"
number = 115


---

# assayed target: UniProt P37059
# Sequence (P37059 whole entry): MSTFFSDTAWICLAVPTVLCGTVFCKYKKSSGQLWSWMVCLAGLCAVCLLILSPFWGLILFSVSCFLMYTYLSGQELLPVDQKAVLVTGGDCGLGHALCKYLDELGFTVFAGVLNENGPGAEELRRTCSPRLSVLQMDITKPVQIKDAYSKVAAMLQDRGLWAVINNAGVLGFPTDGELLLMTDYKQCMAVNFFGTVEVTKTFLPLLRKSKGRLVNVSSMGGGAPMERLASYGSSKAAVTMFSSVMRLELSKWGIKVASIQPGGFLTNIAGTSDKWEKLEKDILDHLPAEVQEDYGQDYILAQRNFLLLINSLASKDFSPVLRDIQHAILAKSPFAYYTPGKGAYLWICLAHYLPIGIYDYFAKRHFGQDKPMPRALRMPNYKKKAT
# experiment description: Inhibition of 17beta-HSD2 (unknown origin)
pIC50: −log10 of the molar value.
Items are presented alongside their recorded pIC50.
measured endpoint: pIC50

[[record]]
smiles_notation = "CN1C(=O)C[C@@H](c2ccccc2F)[C@@H]1[C@@H](O)c1ccc(-c2ccccc2)cc1"
number = 5.99

[[record]]
smiles_notation = "CN1C(=O)C[C@@H](c2ccccc2F)[C@@H]1[C@@H](O)c1cccc(-c2ccccc2)c1"
number = 6.38

